These data points were gathered from patent US20150147342A1.

TARGET_OF_ASSAY: T1, Dimeric fibrinogen-like domain of mouse (Mus musculus) Ang-2 conjugated to human IgG1 (mouse (Mus musculus))
T1 construct: also called Dimeric Mouse Ang-2FD; Mouse Ang-2FD-hFc
PROTOCOL_TEXT: SPR, hIgG1 antibody captured, room temp
Quick reference: T1/2 of the listed items.

# BINDER, T1/2, h
measured = [
    ("H1H696P (antibody, V domains shown) VH: QVQLVESGGGLVKPGGSLRLSCAASGFTFSDYYMSWIRQAPGKGLEWVSYISYTGRTIYYADSVKGRFTISRDNAKNSLYLQMNSLRAEDTAVYYCARDTDYGDFFDYWGQGTLVTVSS VL: DIQMTQSPSSLSASVGDRVTITCRASQGISNYLAWFQQKPGKAPKSLIYAASSLQSGVPSKFSGSGSGTDFTLTISSLQPEDFATYYCQQYNSYPLTFGGGTKVEIK", 0.627),
    ("H1H691P (antibody, V domains shown) VH: EVQLVESGGGLVQPGRSLRLSCAASGFTFDDYAMHWVRQAPGKGLEWVSGISWNSGDIGYADSVKGRFTISRDNAKNSLYLQMNSLRAQDTALYYCAKAYGDYYYFYGMDVWGQGTTVTVS VL: EIVLTQSPGTLSLSPGERATLSCRASQSVSSSYLAWYQQKPGQAPRLLIFSASSRATGIPDRFSGSGSGTDFTLTISRLEPEDFAVYYCQQYDNSLTFGGGTKVEIK", 0.73),
    ("H1H724N (antibody, V domains shown) VH: QVQLVESGGGVVQPGRSLRLSCAASGFTLSNYGMHWVRQAPGKGLEWVAVIWHDGSNTYYADSVKGRFTISRDNSKNTLYLQMNSLRAEDTAVYYCTREGLDFWSGYYPNWFDPWGQGTLVTVSS VL: DIQMTQSPSSLSASVGDRVTITCRASQGIRNDLGWYQQKPGKAPKRLIYAASNLQGGVPSRFSGSGSGTEFTLTISSLQPEDFAAYYCLQHNIYPLTFGGGTKVEIK", 1.4),
    ("H1H730N (antibody, V domains shown) VH: EVQLVESGGGLVQPGGSLRLSCAASGFAFRSYWMTWVRQAPGKGLEWVANIQQDGNDKYYVDSVKGRFTISRDNAKNSLYLQMNSLRAEDTAVYYCARDTGIAEAGPFDYWGQGTLVTVSS VL: DIQMTQSPSTLSASVGDRVSITCRASQTIISWLAWYQQKPGKAPRLLIYKASSLESGVPSRFSGSGSGTEFTLTINSLQPDDFATYYCQQYNRYWTFGQGTKVEIK", 1.5),
]
